Numbers sourced from ChEMBL document CHEMBL4138195.

Target: UniProt:P27338
Sequence (P27338 whole entry): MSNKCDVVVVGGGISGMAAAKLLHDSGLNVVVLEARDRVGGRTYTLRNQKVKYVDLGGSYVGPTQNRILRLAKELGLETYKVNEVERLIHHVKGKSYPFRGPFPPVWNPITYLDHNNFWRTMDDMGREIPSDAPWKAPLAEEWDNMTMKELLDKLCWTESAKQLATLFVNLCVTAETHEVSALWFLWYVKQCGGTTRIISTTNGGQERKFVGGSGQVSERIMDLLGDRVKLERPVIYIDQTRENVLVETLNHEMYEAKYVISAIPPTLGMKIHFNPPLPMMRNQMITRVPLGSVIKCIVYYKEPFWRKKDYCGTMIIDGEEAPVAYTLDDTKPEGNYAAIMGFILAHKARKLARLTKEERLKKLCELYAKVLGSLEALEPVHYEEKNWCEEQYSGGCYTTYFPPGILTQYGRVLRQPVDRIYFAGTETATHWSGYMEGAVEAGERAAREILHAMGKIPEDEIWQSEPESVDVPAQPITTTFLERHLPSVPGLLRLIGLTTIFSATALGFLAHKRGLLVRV
Assay: Inhibition of recombinant human MAOB at 50 uM using benzylamine as substrate preincubated for 15 mins followed by substrate addition measured after 15 mins by Amplex red reagent based fluorescence assay
Settings: 0.25 h
Catalogue of molecules with associated inhibition at 50 µM
Could you give me the number in %? Just the number is fine.

Worked examples follow.
Here `C#CCN(Cc1cn(-c2cc(NC(=S)NCC)ncn2)cn1)C(C)=O` was tested on UniProt:P27338, and its inhibition at 50 µM came to 1.17

Entry `C#CCNCCCc1cn(-c2cc(NC(=S)NCC)ncn2)cn1` under UniProt:P27338 had inhibition at 50 µM of 36.6

The observed inhibition at 50 µM for `C#CCN(CC#N)Cc1cn(-c2cc(NC(=S)NCC)ncn2)cn1` when tested with UniProt:P27338 stands at 15.3

UniProt:P27338 assay, molecule `C#CCN(CCC)Cc1cn(-c2cc(NC(=S)NCC)ncn2)cn1` , recorded inhibition at 50 µM = 24.3

Summary: `C#CCN1CCN(Cc2cn(-c3cc(NC(=S)NCC)ncn3)cn2)CC1` , UniProt:P27338, inhibition at 50 µM = 13.3

New cases:
inhibition at 50 µM value, target or system UniProt:P27338, for `C#CCN(CC#C)Cc1cn(-c2cc(NC(=S)NCC)ncn2)cn1` : 42.1

inhibition at 50 µM value, target or system UniProt:P27338, for `C#CCN(Cc1ccccc1)Cc1cn(-c2cc(NC(=S)NCC)ncn2)cn1` : 18.4

Reported inhibition at 50 µM (UniProt:P27338) for entry `C#CCNCCc1cn(-c2cc(NC(=S)NCC)ncn2)cn1` is 19.2

// returns inhibition at 50 µM for `C#CCN(CC#N)CCc1cn(-c2cc(NC(=S)NCC)ncn2)cn1` with UniProt:P27338; value = 24.9

Summary: `C#CCN(CCCC)Cc1cn(-c2cc(NC(=S)NCC)ncn2)cn1` , UniProt:P27338, inhibition at 50 µM = 20.1

Measured inhibition at 50 µM (UniProt:P27338), entry `C#CCN(CC)Cc1cn(-c2cc(NC(=S)NCC)ncn2)cn1` : 35.1

The value of inhibition at 50 µM recorded for `C#CCN(CC)CCc1cn(-c2cc(NC(=S)NCC)ncn2)cn1` when tested on UniProt:P27338 reads 49.4
